- ASSAY REMARKS: Blood clearance in Balb/c mouse at 2 mg/kg, iv by LC-MS/MS analysis
- Assay type: ADME, organism-based
- PROTOCOL CONDITIONS: whole blood
PARAMETER: clearance
Remember to follow the number with its unit.

I'd like to know its clearance. The molecule in question is "CC(C)(C)N1CCN(C(=O)c2ccnc(Nc3cc4[nH]c(-c5cccc(C(F)(F)F)c5)nc4cn3)c2)CC1"
68 mL/min/kg

* * *

- ASSAY REMARKS: Volume of distribution in Balb/c mouse at 2 mg/kg, iv by LC-MS/MS analysis
- Format: ADME, organism-based
- PROTOCOL CONDITIONS: in vivo
PARAMETER: Vd (L/kg)
I only need the number, in L/kg, no unit after it.

Can you share its Vd? I mean this molecule: "CC(C)(C)N1CCN(C(=O)c2ccnc(Nc3cc4[nH]c(-c5cccc(C(F)(F)F)c5)nc4cn3)c2)CC1"
117

* * *

- ASSAY REMARKS: Metabolic stability in human liver microsomes assessed as parent compound remaining at 0.1 uM after 60 mins in presence of NADPH by LC-MS/MS analysis
- Assay type: ADME, Microsome
- PROTOCOL CONDITIONS: read-out: Stability
Hi! Could you tag entries with remaining at 1 h, 0.1 µM below 90% as Criterion met, and those at or above as Criterion not met? Much appreciated.

State whether 90% exceeds remaining at 1 h, 0.1 µM recorded for "Fc1ccc(-c2nc3cnc(Nc4ccc(C5CCNCC5)cn4)cc3[nH]2)cc1F" .
Criterion not met

Quick check: remaining at 1 h, 0.1 µM of "Fc1ccc(Nc2cc3[nH]c(Nc4cc(N5CCNCC5)ccn4)nc3cn2)cc1C(F)(F)F" under 90%?
Criterion not met

For this compound, is remaining at 1 h, 0.1 µM lower than 90%? "CC(C)(C)N1CCN(C(=O)c2ccnc(Nc3cc4[nH]c(-c5cccc(C(F)(F)F)c5)nc4cn3)c2)CC1"
Criterion met

More entries:
Regarding "O=C(c1ccnc(Nc2cc3[nH]c(-c4ccc(F)c(C(F)(F)F)c4)nc3cn2)c1)N1CCN(C2CC2)CC1" , kindly confirm whether its remaining at 1 h, 0.1 µM is beneath 90%.
Criterion met

Input "CC(C)CN1CCN(c2ccc(Nc3cc4[nH]c(C5CCC(F)(F)CC5)nc4cn3)nc2)CC1" ; condition: remaining at 1 h, 0.1 µM strictly below 90%. Does it hold?
Criterion met

Hi there! Is remaining at 1 h, 0.1 µM for "FC1(F)CC(c2nc3cnc(Nc4ccc(N5CCN(CC6CC6)CC5)cn4)cc3[nH]2)C1" below 90%, do you know?
Criterion met

Hi there! Is remaining at 1 h, 0.1 µM for "FC(F)(F)c1ccc(-c2nc3cnc(Nc4ccc(N5CCN(CC6CC6)CC5)cn4)cc3[nH]2)cn1" below 90%, do you know?
Criterion not met

Please indicate whether the reported remaining at 1 h, 0.1 µM of "Fc1ccc(-c2nc3cnc(Nc4ccc(N5CCN(CC6CC6)CC5)cn4)cc3[nH]2)cc1C(F)(F)F" is strictly below 90%.
Criterion met

Cited source: ChEMBL document CHEMBL4308849
